Tested on: Ipomoea hederaceae (IPOHE)
TEST DESCRIPTION: Pre-emergence biological efficacy, glasshouse, 1000 g/ha, evaluated after 13 days (100=total damage to plant; 0=no damage to plant)
Format: in vivo
RECORDED CONDITIONS: Ipomoea, 312 h, rate 1,000 g/ha, read-out: Percentage damage caused to weed species, pre-emergence, IPOHE
pest or weed control at 1000 g/ha by entry:
Express the result in % but write the number alone.

Problem: Give Ipomoea hederaceae (IPOHE) pest or weed control at 1000 g/ha for O=C(O)c1nc(-c2ccc(Cl)c(F)c2)nc2c1ccn2Cc1ncccc1Cl [Compound 14-17]
Solution: 0

Problem: What do you get for COC(=O)c1nc(-c2ccc(Cl)c(OC)c2F)nc2c1c(C)cn2C(=O)C(C)(C)C [Compound 16-64] ?
Solution: 0

Problem: What do you get for COC(=O)c1nc(-c2ccc(Cl)c(F)c2)nc2c1ccn2Cc1ccccc1 [Compound 6-18] ?
Solution: 0

---
Problem: Give Ipomoea hederaceae (IPOHE) pest or weed control at 1000 g/ha for COc1c(Cl)ccc(-c2nc3c(c(C(=O)O)n2)NC(c2ccccc2)C(c2ccccc2)N3)c1F (centres unmarked) [Compound 91-203]
Solution: 10

Problem: What do you get for C=CCOC(=O)c1nc(-c2ccc(Cl)c(OC)c2F)cc2[nH]cc(C)c12 [Compound 22-80] ?
Solution: 50

Problem: What do you get for CCCCOCC(C)OC(=O)c1nc(-c2ccc(Cl)c(OC)c2F)cc2[nH]cc(C)c12 (centres unmarked) [Compound 22-84] ?
Solution: 80

Cited source for all entries: patent US20120202690A1
